Recorded SCMA Results (MIC) for the following compounds
Test system: E. coli ATCC 25922
Assay: MIC by the proposed method (SCMA), from morphology and growth pattern changes
Type: cell-based
Details: time to result 3 hr, unit assumed
Numbers only; they are read as µg/mL.

Example results:
structure_smiles_string: C[C@H]1[C@H](NC(=O)/C(=N\OC(C)(C)C(=O)O)c2csc(N)n2)C(=O)N1S(=O)(=O)O
SCMA Results (MIC), µg/mL: 0.12
--
structure_smiles_string: C[C@@H](O)[C@H]1C(=O)N2C(C(=O)O)=C(SCCN=CN)C[C@H]12
SCMA Results (MIC), µg/mL: 0.12
--
structure_smiles_string: CC(C)(O/N=C(\C(=O)N[C@@H]1C(=O)N2C(C(=O)[O-])=C(C[n+]3ccccc3)CS[C@H]12)c1csc(N)n1)C(=O)O
SCMA Results (MIC), µg/mL: 0.5

Here is another compound to look at.
**Query** What measured SCMA Results (MIC) is associated with CO/N=C(\C(=O)N[C@@H]1C(=O)N2C(C(=O)O)=C(COC(C)=O)CS[C@H]12)c1csc(N)n1 on E. coli ATCC 25922?
**Result** 0.06

* * *

Test system: E. coli ATCC 25922
Assay: MIC by the proposed method (SCMA), from morphology and growth pattern changes
Format: cell-based
Settings: time to result 3 hr, unit assumed
metric: SCMA Results (MIC) (µg/mL)
Form entry: value (µg/mL) — number only.

structure_smiles_string: CO[C@@]1(NC(=O)Cc2cccs2)C(=O)N2C(C(=O)O)=C(COC(N)=O)CS[C@@H]21
unit_of_measurement: µg/mL
endpoint_value: 2
//
structure_smiles_string: Cc1nnc(SCC2=C(C(=O)O)N3C(=O)[C@@H](NC(=O)Cn4cnnn4)[C@H]3SC2)s1
unit_of_measurement: µg/mL
endpoint_value: 2

**Query** Value lookup for SCMA Results (MIC); key = CCN1CCN(C(=O)N[C@@H](C(=O)N[C@@H]2C(=O)N3[C@@H]2SC(C)(C)[C@@H]3C(=O)O)c2ccccc2)C(=O)C1=O
**Result** 2

* * *

Test system: S. aureus ATCC 29213
Assay: AST by analysis of changes in morphology and growth pattern of a microbial cell (MAC 2.0 chip imaging)
Type: cell-based
Conditions: RRG = relatively rapid growth, RSG = relatively slow growth
metric: Criteria (change in morphology and growth pattern)

molecule: CO[C@H]1/C=C/O[C@@]2(C)Oc3c(C)c(O)c4c(O)c(c(/C=N/N5CCN(C)CC5)c(O)c4c3C2=O)NC(=O)/C(C)=C\C=C\[C@H](C)[C@H](O)[C@@H](C)[C@@H](O)[C@@H](C)[C@H](OC(C)=O)[C@@H]1C [Rifampin]
endpoint_value: RSG

* * *

Test system: S. aureus ATCC 29213
Experiment: AST by analysis of changes in morphology and growth pattern of a microbial cell (MAC 2.0 chip imaging)
Format: cell-based
Details: RRG = relatively rapid growth, RSG = relatively slow growth
metric: Criteria (change in morphology and growth pattern)

molecule: Cc1onc(-c2ccccc2)c1C(=O)N[C@@H]1C(=O)N2[C@@H]1SC(C)(C)[C@@H]2C(=O)O [Oxacillin]
target_of_assay: S. aureus ATCC 29213
endpoint_value: RRG
//
molecule: CC[C@H]1OC(=O)[C@H](C)[C@@H](O[C@H]2C[C@@](C)(OC)[C@@H](O)[C@H](C)O2)[C@H](C)[C@@H](O[C@@H]2O[C@H](C)C[C@H](N(C)C)[C@H]2O)[C@](C)(O)C[C@@H](C)C(=O)[C@H](C)[C@@H](O)[C@]1(C)O [Erythromycin]
target_of_assay: S. aureus ATCC 29213
endpoint_value: RSG
//
molecule: CC(=O)NC[C@H]1CN(c2ccc(N3CCOCC3)c(F)c2)C(=O)O1 [Linezolid]
target_of_assay: S. aureus ATCC 29213
endpoint_value: RSG

* * *

Tested on: P. aeruginosa ATCC 27853
Assay: MIC by the proposed method (SCMA), from morphology and growth pattern changes
Assay type: cell-based
Settings: time to result 3 hr
Attribute: SCMA Results (MIC)

Here's what some known entries look like.
molecule: CO/N=C(\C(=O)N[C@@H]1C(=O)N2C(C(=O)[O-])=C(C[N+]3(C)CCCC3)CS[C@H]12)c1csc(N)n1 [Cefepime]
target_of_assay: P. aeruginosa ATCC 27853
SCMA Results (MIC): 0.5~2

molecule: C[C@H]1[C@H](NC(=O)/C(=N\OC(C)(C)C(=O)O)c2csc(N)n2)C(=O)N1S(=O)(=O)O [Aztreonam]
target_of_assay: P. aeruginosa ATCC 27853
SCMA Results (MIC): 2~4

molecule: CCN1CCN(C(=O)N[C@@H](C(=O)N[C@@H]2C(=O)N3[C@@H]2SC(C)(C)[C@@H]3C(=O)O)c2ccccc2)C(=O)C1=O [Piperacillin]
target_of_assay: P. aeruginosa ATCC 27853
SCMA Results (MIC): 4~8

molecule: NCC[C@H](O)C(=O)N[C@@H]1C[C@H](N)[C@@H](O[C@H]2O[C@H](CN)[C@@H](O)[C@H](O)[C@H]2O)[C@H](O)[C@H]1O[C@H]1O[C@H](CO)[C@@H](O)[C@H](N)[C@H]1O [Amikacin]
target_of_assay: P. aeruginosa ATCC 27853
SCMA Results (MIC): 1~2

Okay, next one:
**Query** Find the measured SCMA Results (MIC): item CC(C)(O/N=C(\C(=O)N[C@@H]1C(=O)N2C(C(=O)[O-])=C(C[n+]3ccccc3)CS[C@H]12)c1csc(N)n1)C(=O)O [Ceftazidime] , target or system P. aeruginosa ATCC 27853.
**Result** 2~4

The values you see were collected from patent US10947575B2.
